Procedure Details: Acute toxicity, intravenous, male mice
Protocol Conditions: mouse, in vivo, read-out: LD50 (median lethal dose)
For each of the compounds below, state its LD50.

compound=CCN(CC)CCNC(=O)c1cc(Cl)c(NC2=NCCN2)cc1OC recorded_endpoint=LD50 result="12.8 to 14.4 mg/kg"
compound=CNC(=O)c1cc(Cl)c(NC2=NCCN2)cc1OC recorded_endpoint=LD50 result="95.8 to 138 mg/kg"
compound=CCN(CC)CCNC(=O)c1cc(Cl)c(NC2=NCCN2)cc1O recorded_endpoint=LD50 result="65.7 to 76.7 mg/kg"
compound=CCN(CC)CCNC(=O)c1cc(Cl)c(NC2=NCCS2)cc1OC recorded_endpoint=LD50 result="40.6 to 48.7 mg/kg"
compound=CCN(CC)CCNC(=O)c1cc(Cl)c(NC2=NCCO2)cc1OC recorded_endpoint=LD50 result="91 to 116 mg/kg"

We next turn to a different compound, shown below.
Field request: LD50 | item: CCN(CC)CCNC(=O)c1cc(Cl)c(N)cc1OC [metoclopramide, reference compound]
25.4 to 37.9 mg/kg
